Just for reference, the supplement of paper PMC12632987 is where these values come from.

Quick list: median log2 fold change per entry.
# TARGET_SYSTEM: T1, USP38, Q8NB14
# T1 chain: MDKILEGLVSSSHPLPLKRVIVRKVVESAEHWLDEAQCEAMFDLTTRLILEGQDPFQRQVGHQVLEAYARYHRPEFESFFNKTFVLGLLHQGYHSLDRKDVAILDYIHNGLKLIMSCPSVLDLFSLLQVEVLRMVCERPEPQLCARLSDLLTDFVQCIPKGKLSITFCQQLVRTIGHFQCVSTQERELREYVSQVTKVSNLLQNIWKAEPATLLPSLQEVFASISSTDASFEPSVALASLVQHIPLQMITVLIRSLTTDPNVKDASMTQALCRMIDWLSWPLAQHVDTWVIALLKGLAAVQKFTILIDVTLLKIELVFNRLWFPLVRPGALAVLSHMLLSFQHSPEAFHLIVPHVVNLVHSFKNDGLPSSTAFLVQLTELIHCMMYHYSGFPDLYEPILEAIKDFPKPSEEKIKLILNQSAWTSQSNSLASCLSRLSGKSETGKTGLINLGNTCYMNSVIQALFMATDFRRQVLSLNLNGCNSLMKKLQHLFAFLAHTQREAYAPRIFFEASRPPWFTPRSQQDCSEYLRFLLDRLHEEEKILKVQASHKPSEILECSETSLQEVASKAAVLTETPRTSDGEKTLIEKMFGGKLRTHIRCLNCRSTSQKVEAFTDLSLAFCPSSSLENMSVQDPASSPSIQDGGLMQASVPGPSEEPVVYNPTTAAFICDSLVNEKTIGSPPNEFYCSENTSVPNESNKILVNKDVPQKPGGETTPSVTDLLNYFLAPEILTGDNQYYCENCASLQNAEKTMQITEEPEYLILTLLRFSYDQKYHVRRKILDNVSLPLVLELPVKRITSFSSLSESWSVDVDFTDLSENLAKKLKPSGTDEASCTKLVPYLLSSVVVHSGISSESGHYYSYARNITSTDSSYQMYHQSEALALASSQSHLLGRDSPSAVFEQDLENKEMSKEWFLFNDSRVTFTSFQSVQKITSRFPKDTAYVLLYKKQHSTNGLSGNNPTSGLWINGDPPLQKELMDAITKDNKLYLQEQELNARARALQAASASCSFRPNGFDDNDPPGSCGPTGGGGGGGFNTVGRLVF
# EXPERIMENT_SUMMARY: median log2 fold change of GCK-ALFA target abundance (FLAG IP / Myc IP barcode read proportion) (log2 ratio); each designed protein is fused to an ALFA-tag nanobody in HEK293 cells to bring the named protein to FLAG-tagged glucokinase (GCK); Myc marks an untargeted standard; higher = target protein stabilised (more abundant)
# APPLIED_CONDITIONS: target protein: 3xFLAG-MCP-GCK-ALFA reporter; HEK293 landing pad (RPLP)
MEASURED_QUANTITY: median log2 fold change

[
  {
    "BINDER": "usp_38_diff_out_4_126_545 (protein) SREEEFKKLEKEAEKKIEEAKKLLEEALKELDKDPEKALELLDKAWDALGEAAKLLREMRRVAADDEELRKRYKELEEKLDKLIDEFTKAATYIFEKIAE",
    "EXPERIMENTAL_VALUE": -0.694
  },
  {
    "BINDER": "usp_38_diff_out_18_14_333 (protein) SSELEEQLISNFKSLTEEVKRDTERTLEIVEKLKDDPDAALALLDTRIQALEGVAKYAKEVKKEAEENGNEELKAAAEELLKAAEEAIKKLKEKRKELKA",
    "EXPERIMENTAL_VALUE": -0.013
  }
]
